- MEASURED_ON: human melanocortin-4 receptor (human, UniProt P32245 1-332)
- Sequence (P32245 whole entry): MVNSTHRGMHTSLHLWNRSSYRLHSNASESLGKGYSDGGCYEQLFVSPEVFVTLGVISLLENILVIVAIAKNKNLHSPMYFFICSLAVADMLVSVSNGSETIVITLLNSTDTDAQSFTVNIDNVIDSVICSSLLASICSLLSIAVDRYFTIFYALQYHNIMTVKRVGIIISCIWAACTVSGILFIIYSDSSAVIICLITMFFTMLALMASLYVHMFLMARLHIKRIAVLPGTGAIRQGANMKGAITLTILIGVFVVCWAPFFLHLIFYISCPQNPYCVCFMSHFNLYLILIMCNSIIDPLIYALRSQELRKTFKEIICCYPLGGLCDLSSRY
- METHOD_DESCRIPTION: cell-based or functional assay
Positions of bridges follow the written chain, without caps; N, C: chain ends. Non-standard residues stand in square brackets, D forms with d. dPhe(4-CN) = N#Cc1ccc(C[C@@H](N)C(=O)O)cc1; dPhe(2-Cl) = N[C@H](Cc1ccccc1Cl)C(=O)O; dPhe(4-F) = N[C@H](Cc1ccc(F)cc1)C(=O)O; dPhe(2-F) = N[C@H](Cc1ccccc1F)C(=O)O; Orn = NCCC[C@H](N)C(=O)O
The following binders are shown together with reported EC50, cAMP, 10 ng/mL Doxycycline values.
PARAMETER: EC50, cAMP, 10 ng/mL Doxycycline

[
  {
    "BINDER": "Ac-R[Orn]Q[dPhe(2-Cl)]RWE-NH2 (lactam 2-7) [Ac-Arg-cyclo(Orn-Gln-D-Phe(2-Cl)-Arg-Trp-Glu)-NH2]",
    "RESULT": "0.07 nM"
  },
  {
    "BINDER": "Ac-R[Orn]N[dPhe(4-CN)]RWE-NH2 (lactam 2-7, also called No. 91) [Ac-Arg-cyclo(Orn-Asn-D-Phe(4-CN)-Arg-Trp-Glu)-NH2]",
    "RESULT": "0.265 nM"
  },
  {
    "BINDER": "XDQXRWK (N-terminal Ac; D-Arg 1; D-Phe(3-Cl) 4; lactam Asp 2-Lys 7; C-terminal NH2, also called No. 80) [Ac-D-Arg-cyclo(Asp-Gln-D-Phe(3-Cl)-Arg-Trp-Lys)-NH2]",
    "RESULT": "0.65 nM"
  },
  {
    "BINDER": "XDQXRWK (N-terminal Ac; D-Arg 1; D-Phe(2-F) 4; lactam Asp 2-Lys 7; C-terminal NH2, also called No. 82) [Ac-D-Arg-cyclo(Asp-Gln-D-Phe(2-F)-Arg-Trp-Lys)-NH2]",
    "RESULT": "0.095 nM"
  },
  {
    "BINDER": "Ac-RES[dPhe(4-F)]RW[Orn]-NH2 (lactam 2-7; SMILES CC(=O)N[C@@H](CCCNC(=N)N)C(=O)N[C@H]1CCC(=O)NCCC[C@@H](C(N)=O)NC(=O)[C@H](Cc2c[nH]c3ccccc23)NC(=O)[C@H](CCCNC(=N)N)NC(=O)[C@@H](Cc2ccc(F)cc2)NC(=O)[C@H](CO)NC1=O, also called No. 65) [Ac-Arg-cyclo(Glu-Ser-D-Phe(4-F)-Arg-Trp-Orn)-NH2]",
    "RESULT": "0.085 nM"
  },
  {
    "BINDER": "Ac-REP[dPhe(2-F)]RW[Orn]-NH2 (lactam 2-7; SMILES CC(=O)N[C@@H](CCCNC(=N)N)C(=O)N[C@H]1CCC(=O)NCCC[C@@H](C(N)=O)NC(=O)[C@H](Cc2c[nH]c3ccccc23)NC(=O)[C@H](CCCNC(=N)N)NC(=O)[C@@H](Cc2ccccc2F)NC(=O)[C@@H]2CCCN2C1=O, also called No. 66) [Ac-Arg-cyclo(Glu-Pro-D-Phe(2-F)-Arg-Trp-Orn)-NH2]",
    "RESULT": "0.265 nM"
  },
  {
    "BINDER": "Ac-R[Orn]N[dPhe(2-Cl)]RWE-NH2 (lactam 2-7) [Ac-Arg-cyclo(Orn-Asn-D-Phe(2-Cl)-Arg-Trp-Glu)-NH2]",
    "RESULT": "0.065 nM"
  },
  {
    "BINDER": "Ac-REN[dPhe(2-Cl)]RW[Orn]-NH2 (lactam 2-7; SMILES CC(=O)N[C@@H](CCCNC(=N)N)C(=O)N[C@H]1CCC(=O)NCCC[C@@H](C(N)=O)NC(=O)[C@H](Cc2c[nH]c3ccccc23)NC(=O)[C@H](CCCNC(=N)N)NC(=O)[C@@H](Cc2ccccc2Cl)NC(=O)[C@H](CC(N)=O)NC1=O, also called No. 84) [Ac-Arg-cyclo(Glu-Asn-D-Phe(2-Cl)-Arg-Trp-Orn)-NH2]",
    "RESULT": "0.09 nM"
  },
  {
    "BINDER": "Ac-REN[dPhe(4-CN)]RW[Orn]-OH (lactam 2-7, also called No. 85) [Ac-Arg-cyclo(Glu-Asn-D-Phe(4-CN)-Arg-Trp-Orn)-OH]",
    "RESULT": "0.707 nM"
  }
]
